# TARGET DESC: T1, Human Nectin-4 (human, UniProt Q96NY8 32-349, limits assumed)
# T1 construct: Protein immobilised on the SPR chip; also called target protein
# T1 sequence: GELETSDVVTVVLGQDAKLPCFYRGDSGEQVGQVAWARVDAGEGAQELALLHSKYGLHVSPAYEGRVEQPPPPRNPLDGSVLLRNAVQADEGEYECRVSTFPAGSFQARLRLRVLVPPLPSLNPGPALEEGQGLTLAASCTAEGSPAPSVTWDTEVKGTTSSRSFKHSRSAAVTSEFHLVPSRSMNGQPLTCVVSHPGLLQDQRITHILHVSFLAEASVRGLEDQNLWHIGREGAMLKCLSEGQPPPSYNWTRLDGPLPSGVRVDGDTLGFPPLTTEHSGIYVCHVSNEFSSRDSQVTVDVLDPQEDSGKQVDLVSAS
# PROTOCOL: SPR, Biacore T200, target immobilised, 1:1 model
Bridges are numbered along the chain shown (N, C = ends). Primed or numbered codes have the meaning given here. Where no end group is shown, it is not given here. [ ]: non-standard residue; d: D form. The star is where a group is joined. Biotin = O=C1N[C@H]2[C@H](CS[C@H]2CCCCC(=O)*)N1; Lys(Me3) = C[N+](C)(C)CCCC[C@H](N)C(=O)O; Arg(Me2s) = CN=C(NC)NCCC[C@H](N)C(=O)O; PEG4″ = 4(ethylene glycol); PEG4′ = not defined here
Quick rule for you: Kd under 0.3 nM gets y, anything else gets n.

BINDER	GROUP
{Biotin-PEG4′}-CDYDEQFFTALARLRGADICEYIQASFQYLPGECIEEILDNLGCS (designed binder, cysteine pairing not given here) [C247]	y
{Biotin-PEG4″}-CEYDEQFFTALARLRGGDICEYIQA[Arg(Me2s)]FQYLPGLCIEEILDNLGCS (designed binder, disulfide 1-34, 20-44) [C267]	n
{Biotin-PEG4′}-CEYDEEFFTALARLRGGDICQYIQA[Lys(Me3)]FQYLPALCIEEILDNLGCS (designed binder, cysteine pairing not given here) [C253]	y
{Biotin-PEG4′}-CDYDEQFFTALKRLRGGDICEYIQASFQYLPGLCIEEILDNLGCS (designed binder, cysteine pairing not given here) [C190]	n

Qu. Dear reviewer, please state whether {Biotin-PEG4″}-CEYDEQFFTALKRLRGADICSYIQASFQYLPGLCIEEILDNLGCS (designed binder, disulfide 1-34, 20-44) [C185] has Kd strictly beneath 0.3 nM.
Ans. n

Qu. Dear reviewer, please state whether {Biotin-PEG4″}-CEYDEEFFTALARLRGDDICSYIQAKFQYLPGLCIEEILDNLGCS-OH (designed binder, disulfide 1-34, 20-44) [C143] has Kd strictly beneath 0.3 nM.
Ans. y

Qu. Dear reviewer, please state whether {Biotin-PEG4′}-CEYDEQFFTALKRLRGDDICDYIQASFQYLPGLCIEEILDNLGCS (designed binder, cysteine pairing not given here) [C197] has Kd strictly beneath 0.3 nM.
Ans. y
